Target: T1, soluble hG-CSFR: amino acids 25-335 of Homo sapiens G-CSFR with mutations C78A, C163S and C228S and a … (Homo sapiens, UniProt Q99062 25-335)
T1 chain: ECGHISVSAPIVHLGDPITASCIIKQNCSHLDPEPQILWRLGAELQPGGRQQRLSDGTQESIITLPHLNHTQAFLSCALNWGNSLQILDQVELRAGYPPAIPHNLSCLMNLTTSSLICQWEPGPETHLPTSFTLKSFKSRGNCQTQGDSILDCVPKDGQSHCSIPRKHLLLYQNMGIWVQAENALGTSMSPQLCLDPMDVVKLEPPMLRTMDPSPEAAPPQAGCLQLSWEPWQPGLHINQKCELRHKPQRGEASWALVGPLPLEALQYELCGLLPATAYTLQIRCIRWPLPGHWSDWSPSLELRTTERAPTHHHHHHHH
Test: SPR (Biacore), mAb captured by anti-human IgG, soluble hG-CSFR injected
Please go through the items and note down their pKd.
API: returns pKd as number; meaning -log10 of concentration in mol/L.

Q. Value lookup for pKd; key = C1.2G-95 (antibody, human IgG4, V domains shown, HCDR3 wt (VH of C1.2G); also called antibody 95) VH: EVQLLESGGGLVQPGGSLRLSCAASGFTFSLYWMGWVRQAPGKGLEWVSSISSSGGVTPYADSVKGRFTISRDNSKNTLYLQMNSLRAEDTAVYYCAKLGELGWFDPWGQGTLVTVSS VL: DIQMTQSPSSLSASVGDRVTITCRASQGISSYLNWYQQKPGKAPKLLIYYASNLQNGVPSRFSGSGSGTDFTLTISSLQPEDFATYYCQQSWEYPLVFGGGTKVEIK
A. 10.24

Q. Report pKd for C1.2G-870 (antibody, human IgG4, V domains shown, HCDR3 wt (VH of C1.2G); also called antibody 870) VH: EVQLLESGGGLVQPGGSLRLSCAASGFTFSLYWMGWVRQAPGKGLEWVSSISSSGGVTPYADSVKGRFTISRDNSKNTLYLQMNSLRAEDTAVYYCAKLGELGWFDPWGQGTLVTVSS VL: DIQMTQSPSSLSASVGDRVTITCRASQGISSYLNWYQQKPGKAPKLLIYYASNLQNGVPSRFSGSGSGTDFTLTISSLQPEDFATYYCQQSWMYHKIFGGGTKVEIK please.
A. 9.44

Q. If you can, please state the reported pKd value of C1.2G-63 (antibody, human IgG4, V domains shown, HCDR3 wt (VH of C1.2G); also called antibody 63) VH: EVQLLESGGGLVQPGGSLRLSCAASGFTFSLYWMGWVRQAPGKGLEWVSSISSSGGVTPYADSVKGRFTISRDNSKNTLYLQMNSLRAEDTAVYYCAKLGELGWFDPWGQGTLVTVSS VL: DIQMTQSPSSLSASVGDRVTITCRASQGISSYLNWYQQKPGKAPKLLIYYASNLQNGVPSRFSGSGSGTDFTLTISSLQPEDFATYYCANSWGYPLTFGGGTKVEIK .
A. 9.79
